Each recorded value in this set is attributed to patent US12063930B2.

// Inhibition Rate lookup, one value per entry
Tested on: rice bacterial wilt pathogen (Xoo)
Format: cell-based, Xanthomonas oryzae pv. oryzae
Conditions: 50 μg/mL
Quick note: number first, unit second.

Use these answered entries as a reference point.
compound=COc1cc(OC)c2c(=O)c(OCCCCN(C)C3CCN(S(=O)(=O)c4ccc5cccnc5c4)CC3)c(-c3cc(OC)c(OC)c(OC)c3)oc2c1 measured_metric="Inhibition Rate" result="38.72 ± 1.36%"
compound=COc1cc(OC)c2c(=O)c(OCCCN(C)C3CCN(S(=O)(=O)c4cccs4)CC3)c(-c3cc(OC)c(OC)c(OC)c3)oc2c1 measured_metric="Inhibition Rate" result="21.34 ± 3.45%"
compound=COc1cc(OC)c2c(=O)c(OCCCCN(C)C3CCN(S(=O)(=O)c4ccc(C)cc4)CC3)c(-c3cc(OC)c(OC)c(OC)c3)oc2c1 measured_metric="Inhibition Rate" result="71.76 ± 4.56%"
compound=COc1cc(OC)c2c(=O)c(OCCCN(C)C3CCN(S(=O)(=O)c4ccc5cccnc5c4)CC3)c(-c3cc(OC)c(OC)c(OC)c3)oc2c1 measured_metric="Inhibition Rate" result="37.31 ± 5.41%"
compound=COc1cc(OC)c2c(=O)c(OCCCCN(C)C3CCN(S(=O)(=O)c4ccc(F)cc4)CC3)c(-c3cc(OC)c(OC)c(OC)c3)oc2c1 measured_metric="Inhibition Rate" result="99.72 ± 1.10%"
compound=COc1ccc(S(=O)(=O)N2CCC(N(C)CCCCOc3c(-c4cc(OC)c(OC)c(OC)c4)oc4cc(OC)cc(OC)c4c3=O)CC2)cc1 measured_metric="Inhibition Rate" result="94.39 ± 0.62%"
compound=COc1cc(OC)c2c(=O)c(OCCCCN(C)C3CCN(S(=O)(=O)c4ccccc4)CC3)c(-c3cc(OC)c(OC)c(OC)c3)oc2c1 measured_metric="Inhibition Rate" result="89.16 ± 1.26%"
compound=COc1cc(OC)c2c(=O)c(OCCCCN(C)C3CCN(S(=O)(=O)c4ccccn4)CC3)c(-c3cc(OC)c(OC)c(OC)c3)oc2c1 measured_metric="Inhibition Rate" result="70.98 ± 3.04%"

Ask: Any idea what Inhibition Rate was measured for "COc1cc(OC)c2c(=O)c(OCCCCN(C)C3CCN(S(=O)(=O)c4ccc5ccccc5c4)CC3)c(-c3cc(OC)c(OC)c(OC)c3)oc2c1" ?
Reply: 89.81 ± 1.34%
